# Tested On: T1, human CD47-linker peptide-hIgG1Fc (human)
# T1 construct: also called Human CD47-hFc; human CD47-hFc
# Assay Comment: competition ELISA: CD47-hFc coated, antibody titrated against human SIRP-his (competitor), anti-His detection
Observation Type: pEC50
# pEC50 = -log10(concentration in molar units)

## Task # get_value(readout='pEC50', item= 059-1.82.1 (antibody, mouse IgG3, V domains shown) VH: EVQLQQSGPELVKPGASVKMSCKASGYTFTNYVMHWVKQKPGQGLEWIGYINPYNDGTNYNEKFKGKATLTSDKSSSTAYMELSSLTSEDSAVYYCAKGGWFSMDYWGQGTSVTVSS VL: DVVMTQTPLSLPVSLGDQASISCRSSQSLVHSNGKTYLQWYLQKPGQSPKLLIYKVSNRFSGVPDRFSGSGSGTDFTLKISRVEAEDLGVYFCSQSTHVYTFGGGTKLEIK )
## Result 5.99
